test.details: Toxicokinetics in 13-week topical ocular dog study
condition.info: female, beagle, in vivo, topical or ocular, 30 mg/mL/occasion, female dogs, 30 mg/mL, 6 daily doses, Week 4, read-out: AUC0-24
reported.endpoint: AUC(0-t)
# output: numeric value plus its unit

Ask: For "Cc1ccccc1OCC(=O)N[C@@H](CC(C)C)C(=O)N[C@@H](Cc1ccc(OC(=O)N2CCC(C(N)=O)CC2)cc1)C(=O)O" , what is its reported AUC(0-t)?
Result: 25.7 ng·h/mL

* * *

test.details: Toxicokinetics in 13-week topical ocular rabbit study
condition.info: male, New Zealand White, in vivo, topical or ocular, 50 mg/mL/occasion, male rabbits, 50 mg/mL, 6 daily doses, Week 13, after the first daily dose
reported.endpoint: Cmax (ng/mL)
Numeric only. Scale: ng/mL

Ask: Could you share which Cmax value was measured for Cc1ccccc1OCC(=O)N[C@@H](CC(C)C)C(=O)N[C@@H](Cc1ccc(OC(=O)N2CCC(C(N)=O)CC2)cc1)C(=O)O [GW559090] ?
Result: 32.2

* * *

test.details: Toxicokinetics in 13-week topical ocular dog study
condition.info: both sexes, Beagle, in vivo, topical or ocular, dogs, males and females combined, 50 mg/mL/occasion 12 times a day, Week 13, read-out: Cmax at NOAEL
Experimental: GW559090A was given to Beagle Dogs by topical ocular administration for 13 weeks. Animals were dosed six or twelve times per day, with one hour between doses. Treatment groups were: (1) vehicle (12 times a day), (2) 30 mg/mL/occasion given six times a day, (3) 50 mg/mL/occasion given six times a day, or (4) 50 mg/mL/occasion, given 12 times a day. […]
reported.endpoint: Cmax

Ask: # query: Cmax of entry "Cc1ccccc1OCC(=O)N[C@@H](CC(C)C)C(=O)N[C@@H](Cc1ccc(OC(=O)N2CCC(C(N)=O)CC2)cc1)C(=O)O"
Result: 28.7 ng/mL

* * *

test.details: Toxicokinetics in 13-week topical ocular dog study
condition.info: female, beagle, in vivo, topical or ocular, 30 mg/mL/occasion, female dogs, 30 mg/mL, 6 daily doses, Week 13, read-out: AUC0-24
reported.endpoint: AUC(0-t)
# number then unit; no other words

Ask: // query AUC(0-t) value for entry "Cc1ccccc1OCC(=O)N[C@@H](CC(C)C)C(=O)N[C@@H](Cc1ccc(OC(=O)N2CCC(C(N)=O)CC2)cc1)C(=O)O"
Result: 36.3 ng·h/mL

* * *

test.details: Toxicokinetics in 13-week topical ocular rabbit study
condition.info: male, New Zealand White, in vivo, topical or ocular, 50 mg/mL/occasion, male rabbits, 50 mg/mL, 12 daily doses, Week 14, after the first daily dose
reported.endpoint: Cmax (ng/mL)
Give just the number in ng/mL; leave the unit off.

Ask: Returns the measured Cmax for the input compound. Input: "Cc1ccccc1OCC(=O)N[C@@H](CC(C)C)C(=O)N[C@@H](Cc1ccc(OC(=O)N2CCC(C(N)=O)CC2)cc1)C(=O)O"
Result: 38.1

* * *

test.details: Toxicokinetics in 13-week topical ocular dog study
condition.info: female, beagle, in vivo, topical or ocular, 50 mg/mL/occasion, female dogs, 50 mg/mL, 6 daily doses, Week 4, read-out: Cmax
reported.endpoint: Cmax (µg/mL)
API: value field is a number in µg/mL; no unit string.

Ask: # input compound: "Cc1ccccc1OCC(=O)N[C@@H](CC(C)C)C(=O)N[C@@H](Cc1ccc(OC(=O)N2CCC(C(N)=O)CC2)cc1)C(=O)O" ; wanted: its Cmax
Result: 0.0114

* * *

test.details: Toxicokinetics in 13-week topical ocular rabbit study
condition.info: male, New Zealand White, in vivo, topical or ocular, 50 mg/mL/occasion, male rabbits, 50 mg/mL, 12 daily doses, Day 1, after the first daily dose
reported.endpoint: Cmax

Ask: Query (molecule): "Cc1ccccc1OCC(=O)N[C@@H](CC(C)C)C(=O)N[C@@H](Cc1ccc(OC(=O)N2CCC(C(N)=O)CC2)cc1)C(=O)O" ; field requested: Cmax
Result: 66.3 ng/mL

* * *

test.details: Toxicokinetics in 13-week topical ocular dog study
condition.info: male, beagle, in vivo, topical or ocular, 50 mg/mL/occasion, male dogs, 50 mg/mL, 12 daily doses, Day 1, read-out: AUC0-1
reported.endpoint: AUC(0-t) (ng·h/mL)
// units = ng·h/mL; emit number, no label

Ask: May I ask what AUC(0-t) has been recorded for Cc1ccccc1OCC(=O)N[C@@H](CC(C)C)C(=O)N[C@@H](Cc1ccc(OC(=O)N2CCC(C(N)=O)CC2)cc1)C(=O)O [GW559090] ?
Result: 36.6

* * *

test.details: Toxicokinetics in 13-week topical ocular rabbit study
condition.info: female, New Zealand White, in vivo, topical or ocular, 50 mg/mL/occasion, female rabbits, 50 mg/mL, 6 daily doses, Week 13, read-out: AUC0-24
reported.endpoint: AUC(0-t) (ng·h/mL)
# value in ng·h/mL; strip the unit string

Ask: I'd like to know its AUC(0-t). The molecule in question is Cc1ccccc1OCC(=O)N[C@@H](CC(C)C)C(=O)N[C@@H](Cc1ccc(OC(=O)N2CCC(C(N)=O)CC2)cc1)C(=O)O [GW559090]
Result: 94.2

* * *

test.details: Toxicokinetics in 13-week topical ocular dog study
condition.info: male, beagle, in vivo, topical or ocular, 50 mg/mL/occasion, male dogs, 50 mg/mL, 12 daily doses, Day 1
reported.endpoint: Tmax

Ask: Param item = "Cc1ccccc1OCC(=O)N[C@@H](CC(C)C)C(=O)N[C@@H](Cc1ccc(OC(=O)N2CCC(C(N)=O)CC2)cc1)C(=O)O" ; retrieve measured Tmax.
Result: 22.5 min

* * *

test.details: Toxicokinetics in 13-week topical ocular dog study
condition.info: female, beagle, in vivo, topical or ocular, 50 mg/mL/occasion, female dogs, 50 mg/mL, 6 daily doses, Week 13, read-out: Cmax
reported.endpoint: Cmax (ng/mL)
Report the figure in ng/mL without appending any unit label.

Ask: I'd like to know its Cmax. The compound in question is Cc1ccccc1OCC(=O)N[C@@H](CC(C)C)C(=O)N[C@@H](Cc1ccc(OC(=O)N2CCC(C(N)=O)CC2)cc1)C(=O)O [GW559090]
Result: 17.9

* * *

tested.system: Rat α4β1 (Rattus norvegicus, UniProt D3ZMQ3+P49134)
Construct: rat RBL-2H3 cells which express rat α4β1; endogenous in cells
Sequence (D3ZMQ3 1-1036): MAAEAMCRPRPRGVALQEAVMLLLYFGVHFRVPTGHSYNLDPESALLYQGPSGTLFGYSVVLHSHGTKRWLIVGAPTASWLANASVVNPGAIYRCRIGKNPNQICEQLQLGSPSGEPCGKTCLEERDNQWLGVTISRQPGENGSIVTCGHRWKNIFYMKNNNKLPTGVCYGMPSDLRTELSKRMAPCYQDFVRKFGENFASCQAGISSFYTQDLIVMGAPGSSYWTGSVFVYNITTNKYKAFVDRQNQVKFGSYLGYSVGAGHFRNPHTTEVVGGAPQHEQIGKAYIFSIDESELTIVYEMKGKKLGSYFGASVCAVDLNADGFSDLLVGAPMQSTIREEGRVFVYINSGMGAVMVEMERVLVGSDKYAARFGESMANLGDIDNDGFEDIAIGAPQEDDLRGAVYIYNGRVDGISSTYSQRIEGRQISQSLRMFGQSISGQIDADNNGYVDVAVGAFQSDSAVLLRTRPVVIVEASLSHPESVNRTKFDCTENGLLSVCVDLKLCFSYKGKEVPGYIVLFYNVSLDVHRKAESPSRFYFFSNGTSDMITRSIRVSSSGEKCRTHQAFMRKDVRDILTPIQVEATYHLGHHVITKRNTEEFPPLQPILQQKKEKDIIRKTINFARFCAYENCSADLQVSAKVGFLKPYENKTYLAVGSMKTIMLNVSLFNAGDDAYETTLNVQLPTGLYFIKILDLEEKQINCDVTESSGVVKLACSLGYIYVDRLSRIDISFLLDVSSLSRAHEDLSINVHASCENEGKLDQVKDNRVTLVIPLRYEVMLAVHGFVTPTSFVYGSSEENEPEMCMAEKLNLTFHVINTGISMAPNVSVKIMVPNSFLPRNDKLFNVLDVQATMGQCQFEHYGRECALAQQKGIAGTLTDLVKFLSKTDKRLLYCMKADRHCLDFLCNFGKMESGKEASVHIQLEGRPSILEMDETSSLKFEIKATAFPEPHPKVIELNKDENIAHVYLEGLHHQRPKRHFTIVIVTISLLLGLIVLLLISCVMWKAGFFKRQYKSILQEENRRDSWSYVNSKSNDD
Sequence (P49134 21-799): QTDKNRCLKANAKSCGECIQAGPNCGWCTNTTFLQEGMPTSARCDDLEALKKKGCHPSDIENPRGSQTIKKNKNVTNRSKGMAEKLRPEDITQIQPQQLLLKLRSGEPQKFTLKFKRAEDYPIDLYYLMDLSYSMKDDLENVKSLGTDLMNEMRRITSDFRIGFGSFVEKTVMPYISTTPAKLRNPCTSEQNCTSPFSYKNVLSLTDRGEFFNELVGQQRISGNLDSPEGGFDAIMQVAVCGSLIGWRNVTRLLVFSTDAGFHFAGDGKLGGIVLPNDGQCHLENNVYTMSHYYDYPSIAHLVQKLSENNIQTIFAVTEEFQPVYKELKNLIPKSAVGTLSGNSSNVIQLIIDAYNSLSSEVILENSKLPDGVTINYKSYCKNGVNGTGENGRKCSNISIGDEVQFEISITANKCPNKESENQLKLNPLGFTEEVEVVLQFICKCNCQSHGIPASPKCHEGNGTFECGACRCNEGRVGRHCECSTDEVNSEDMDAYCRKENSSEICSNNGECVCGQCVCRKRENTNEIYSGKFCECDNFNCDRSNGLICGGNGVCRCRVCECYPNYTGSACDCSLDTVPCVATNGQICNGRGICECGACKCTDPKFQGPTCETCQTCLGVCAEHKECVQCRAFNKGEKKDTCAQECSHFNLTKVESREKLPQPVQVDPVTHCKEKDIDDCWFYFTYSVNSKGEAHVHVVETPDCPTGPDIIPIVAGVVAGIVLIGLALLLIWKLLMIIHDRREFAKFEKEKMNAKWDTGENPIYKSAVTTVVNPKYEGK
test.details: Saturation binding assay in RBL-2H3 cells (SPA)
condition.info: [3H]GW559090, RBL-2H3 cells
reported.endpoint: pKd
Scale for pKd: -log10 of concentration given in mol/L; no unit attached.

Ask: Given the entry "Cc1ccccc1OCC(=O)N[C@@H](CC(C)C)C(=O)N[C@@H](Cc1ccc(OC(=O)N2CCC(C(N)=O)CC2)cc1)C(=O)O" , report its measured pKd.
Result: 8.98

* * *

test.details: Toxicokinetics in 13-week topical ocular rabbit study
condition.info: male, New Zealand White, in vivo, topical or ocular, 50 mg/mL/occasion, male rabbits, 50 mg/mL, 12 daily doses, Week 4, after the first daily dose
Experimental: GW559090A was given to New Zealand White Rabbits by topical ocular administration for 13 weeks. Animals were dosed six or twelve times per day, with one hour between doses. Treatment groups were: (1) vehicle (12 times a day), (2) 30 mg/mL/occasion given six times a day, (3) 50 mg/mL/occasion given six times a day, or (4) 50 mg/mL/occasion, given 12 times a day. […]
reported.endpoint: Tmax

Ask: What does the data say about its Tmax? Entry: "Cc1ccccc1OCC(=O)N[C@@H](CC(C)C)C(=O)N[C@@H](Cc1ccc(OC(=O)N2CCC(C(N)=O)CC2)cc1)C(=O)O"
Result: 4.98 min

* * *

test.details: PK study in rabbits, ocular tissue concentrations (LC-MS/MS)
Type: in vivo, New Zealand White rabbits
condition.info: male, New Zealand White, rabbit, cornea, topical; at 30 minutes; 40 μL (50 mg/mL) GW559090A; read-out: Corneal tissue concentration
reported.endpoint: concentration at 30 min

Ask: What does the data say about its concentration at 30 min? Entry: "Cc1ccccc1OCC(=O)N[C@@H](CC(C)C)C(=O)N[C@@H](Cc1ccc(OC(=O)N2CCC(C(N)=O)CC2)cc1)C(=O)O"
Result: > 3000 ng/mL

* * *

test.details: Toxicokinetics in 13-week topical ocular dog study
condition.info: male, beagle, in vivo, topical or ocular, 50 mg/mL/occasion, male dogs, 50 mg/mL, 6 daily doses, Day 1, read-out: Cmax
reported.endpoint: Cmax (ng/mL)
Quick reminder: number only, in ng/mL, skip the unit.

Ask: Suppose we examine the compound Cc1ccccc1OCC(=O)N[C@@H](CC(C)C)C(=O)N[C@@H](Cc1ccc(OC(=O)N2CCC(C(N)=O)CC2)cc1)C(=O)O [GW559090] ; what Cmax value has been reported?
Result: 52.8

* * *

test.details: Toxicokinetics in 13-week topical ocular rabbit study
condition.info: female, New Zealand White, in vivo, topical or ocular, 50 mg/mL/occasion, female rabbits, 50 mg/mL, 12 daily doses, Week 4, read-out: AUC0-1
reported.endpoint: AUC(0-t) (ng·h/mL)
Please respond with the number in ng·h/mL and leave the unit unwritten.

Ask: Which AUC(0-t) reading was recorded for the compound Cc1ccccc1OCC(=O)N[C@@H](CC(C)C)C(=O)N[C@@H](Cc1ccc(OC(=O)N2CCC(C(N)=O)CC2)cc1)C(=O)O [GW559090] ?
Result: 13.1
